System: NK-YS (IL-2 2.5 ng/mL);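 also: normalised to DMSO-only wells as negative and benzethonium chloride as positive control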
Assay Summary: percent inhibition of viability; higher = more inhibition
Condition Summary: 72 h; 100 nM
Please respond with reported percent inhibition of viability for every item in the list.

Ask: Query (molecule): Cc1ccc(NC(=O)c2ccc(CN3CCN(C)CC3)cc2)cc1Nc1nc(-c2cccnc2)cs1 [Masitinib] (max concentration tested 10000 nM) ; field requested: percent inhibition of viability
Reply: 1.86%

Ask: Recorded percent inhibition of viability of O=C1CN2Cc3c(ccc(Cl)c3Cl)N=C2N1 [Anagrelide] (max concentration tested 10000 nM) , please.
Reply: 0.98%

Ask: # percent inhibition of viability lookup, item Nc1ncn([C@@H]2O[C@H](CO)[C@@H](O)[C@H]2O)c(=O)n1 [Azacitidine] (max concentration tested 10000 nM)
Reply: 3.5%

Ask: Could you share which percent inhibition of viability value was measured for CC[C@H](Nc1ncnc2[nH]cnc12)c1nc2cccc(F)c2c(=O)n1-c1ccccc1 [Idelalisib] (max concentration tested 10000 nM) ?
Reply: 3.49%

Ask: I'd like to know its percent inhibition of viability. The molecule in question is Nc1nc(N)c2nc(-c3cccc(O)c3)c(-c3cccc(O)c3)nc2n1 [TG100-115] (max concentration tested 10000 nM)
Reply: 0.64%

Ask: Look up percent inhibition of viability: C=C1C[C@@H]2[C@H](CC[C@]3(C)C(=O)CC[C@@H]23)[C@@]2(C)C=CC(=O)C=C12 [Exemestane] (max concentration tested 10000 nM)
Reply: 3.16%

Ask: Request the reported percent inhibition of viability associated with O=C(Cc1ccc(-c2ccc(OCCN3CCOCC3)cc2)cn1)NCc1ccccc1 [KX2-391] (max concentration tested 10000 nM)
Reply: 69.3%

Ask: GET /values?readout=percent inhibition of viability&item= Nc1nc(Cl)nc2c1ncn2[C@H]1C[C@H](O)[C@@H](CO)O1 [Cladribine] (max concentration tested 1000 nM)
Reply: 7.65%

Ask: Item under review: C[C@@H](Nc1cc(F)cc(F)c1)c1cc(C(=O)N(C)C)cc2c(=O)cc(N3CCOCC3)oc12 [AZD-8186] (max concentration tested 1000 nM) . Reported percent inhibition of viability?
Reply: -2.72%

Ask: Entry under review: CC[C@H](NC(=O)[C@H](C)NC)C(=O)N1C[C@@H](O)C[C@H]1Cc1c(-c2[nH]c3cc(F)ccc3c2C[C@@H]2C[C@H](O)CN2C(=O)[C@H](CC)NC(=O)[C@H](C)NC)[nH]c2cc(F)ccc12 [Birinapant] (max concentration tested 1000 nM) . Reported percent inhibition of viability?
Reply: -5.45%

Ask: Requested read-out: percent inhibition of viability. Entry: CC(C)C[C@H](NC(=O)[C@H](Cc1ccccc1)NC(=O)c1cnccn1)B(O)O [Bortezomib] (max concentration tested 1000 nM)
Reply: 106%

Ask: Entry C=CCNC1=C2C[C@@H](C)C[C@H](OC)[C@H](O)[C@@H](C)/C=C(\C)[C@H](OC(N)=O)[C@@H](OC)/C=C\C=C(/C)C(=O)NC(=CC1=O)C2=O [Tanespimycin] (max concentration tested 10000 nM) : reported percent inhibition of viability = ?
Reply: 63.4%

Ask: If you can, please state the reported percent inhibition of viability value of Oc1ccc2c(c1)CC[C@H](c1ccccc1)[C@@H]2c1ccc(OCCN2CCCC2)cc1 [Lasofoxifene] (max concentration tested 1000 nM) .
Reply: -0.77%

Ask: Look up percent inhibition of viability for this molecule: CCCCc1nc2cc(/C=C/C(=O)NO)ccc2n1CCN(CC)CC [Pracinostat] (max concentration tested 10000 nM)
Reply: 26.5%

Ask: Looking for the measured percent inhibition of viability of CNC(=O)c1cc(COc2nnc(Nc3ccc(Cl)cc3)c3ccoc23)ccn1 [Telatinib] (max concentration tested 10000 nM) , can you help?
Reply: 3.78%

Ask: Entry under review: CNC(=O)c1cccc(-c2ccc3c(N4CCOC[C@@H]4C)nc(N4CCOC[C@@H]4C)nc3n2)c1 [AZD2014] (max concentration tested 10000 nM) . Reported percent inhibition of viability?
Reply: 23%

Ask: Dear colleague, I am looking for the recorded percent inhibition of viability of the following molecule: Cc1cc(C)c(/C=C2\C(=O)Nc3ccccc32)[nH]1 [Semaxanib] (max concentration tested 10000 nM)
Reply: 2.82%

Ask: What value of percent inhibition of viability has been recorded for this entry: COc1cc2c(Oc3ccc4[nH]c(C)cc4c3F)ncnc2cc1OCCCN1CCCC1 [Cediranib] (max concentration tested 1000 nM)
Reply: -2.9%

Ask: Fill in: percent inhibition of viability of O=C(Nc1cccc(C(F)(F)F)c1)Nc1cc(S(=O)(=O)NC2CC2)ccc1-c1ccsc1 [AGI-6780] (max concentration tested 10000 nM) is ___
Reply: -0.98%

Ask: Would you kindly share the measured percent inhibition of viability for CNC(=O)c1ccc(-c2cnc3ncc(Cc4ccc5ncccc5c4)n3n2)cc1F [NVP-INC280] (max concentration tested 1000 nM) ?
Reply: 4.91%

Ask: Need percent inhibition of viability, item C[C@]1(O)C[C@@H](c2nc(-c3ccc4ccc(-c5ccccc5)nc4c3)c3c(N)nccn32)C1 [Linsitinib] (max concentration tested 10000 nM)
Reply: -2.18%

Ask: Name the recorded percent inhibition of viability for O=C(Nc1ccc(-c2ccnc(Nc3ccc(N4CCOCC4)cc3)n2)cc1)C1CCCN1 (centres undefined) [XL019] (max concentration tested 10000 nM) .
Reply: -0.83%

Ask: Field request: percent inhibition of viability | item: COc1cc2/c(=N/c3ccc(Br)cc3F)nc[nH]c2cc1OCC1CCN(C)CC1 [Vandetanib] (max concentration tested 1000 nM)
Reply: 0.66%

Ask: So what does the record say about percent inhibition of viability for Nc1ncn([C@H]2C[C@H](O)[C@@H](CO)O2)c(=O)n1 [Decitabine] (max concentration tested 10000 nM) ?
Reply: 16.5%
